Test: HepG2 hepatoma cell viability loss – plate reader, dry powder, cytotoxicity control, dose response (AID 651947)
Details: ATP luminescence (CellTiter-Glo), 48 h, hits give low values; at 26 µM unless noted
Results with a measured potency or affinity are listed apart. Records with an inconclusive call do not appear. Activity calls are given as the source filed them.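 How the source made its calls: active means luminescence drop in HepG2 cells whose fitted half-effect dose is at most twice the top valid dose; inconclusive means flat curve with 30 to 70% signal loss, or unreliable fit; inactive means the rest.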
# key: entry, value: max activity

Example entries begin here.
# Molecule, max activity
data = [
    ("c1ccc(CSc2nnc(C3CCCCC3)o2)cc1", "16.5% [at 3 µM] (inactive)"),
    ("c1ccc(CSc2nnc(-c3ccc(-c4ccccc4)cc3)o2)cc1", "15.5% (inactive)"),
    ("c1ccc(-c2nnc(SC(c3ccccc3)c3ccccc3)o2)cc1", "-33% [at 0.8 µM] (inactive)"),
    ("Cc1ccc(-c2nnc(SCc3ccccn3)o2)cc1", "-42.6% [at 0.38 µM] (inactive)"),
    ("COc1ccccc1-c1nnc(SCc2ccccn2)o1", "-21.6% (inactive)"),
    ("Clc1cccc(-c2nnc(SCc3ccccc3)o2)c1", "-48.3% [at 3 µM] (inactive)"),
    ("COCCSc1nnc(-c2ccccc2)o1", "27.8% [at 0.195 µM] (inactive)"),
    ("c1ccc(CNCCSc2nnc(-c3ccccc3)o2)cc1", "-50.5% [at 1.6 µM] (inactive)"),
    ("c1ccc(Cn2cc(CSc3nnc(-c4ccccc4)o3)nn2)cc1", "-41.8% (inactive)"),
    ("O=C(Cc1ccccc1)C(C(=O)c1nnc(-c2ccccc2)o1)c1ccccc1 (stereo unspecified)", "-29.7% (inactive)"),
]

Record request: max activity value, item c1ccc(-c2nnc(SCCC3OCCCO3)o2)cc1
12.9% [at 0.8 µM] (inactive)

Record request: max activity value, item Clc1ccccc1CSc1nnc(-c2ccccc2)o1
17.5% [at 0.195 µM] (inactive)

Record request: max activity value, item Fc1ccc(-c2nnc(SCc3ccccc3)o2)cc1
14.5% (inactive)

Record request: max activity value, item c1ccc(-c2nnc(SCc3cccnc3)o2)cc1
17.3% (inactive)

Record request: max activity value, item FC(F)(F)c1cccc(CSc2nnc(-c3ccccc3)o2)c1
-34.6% [at 1.6 µM] (inactive)
